target: human αvβ3 receptor (Homo sapiens, UniProt P05106+P06756); assay: Kistrin/Vitronectin Receptor (αvβ3) ELISA test; assay type: binding; conditions: Kistrin-coated plates, human αvβ3 receptor, 3 hours at ambient temperature, OD 450 nm; read-out: K/VnR IC50
Sequence (P06756 31-889 limits assumed): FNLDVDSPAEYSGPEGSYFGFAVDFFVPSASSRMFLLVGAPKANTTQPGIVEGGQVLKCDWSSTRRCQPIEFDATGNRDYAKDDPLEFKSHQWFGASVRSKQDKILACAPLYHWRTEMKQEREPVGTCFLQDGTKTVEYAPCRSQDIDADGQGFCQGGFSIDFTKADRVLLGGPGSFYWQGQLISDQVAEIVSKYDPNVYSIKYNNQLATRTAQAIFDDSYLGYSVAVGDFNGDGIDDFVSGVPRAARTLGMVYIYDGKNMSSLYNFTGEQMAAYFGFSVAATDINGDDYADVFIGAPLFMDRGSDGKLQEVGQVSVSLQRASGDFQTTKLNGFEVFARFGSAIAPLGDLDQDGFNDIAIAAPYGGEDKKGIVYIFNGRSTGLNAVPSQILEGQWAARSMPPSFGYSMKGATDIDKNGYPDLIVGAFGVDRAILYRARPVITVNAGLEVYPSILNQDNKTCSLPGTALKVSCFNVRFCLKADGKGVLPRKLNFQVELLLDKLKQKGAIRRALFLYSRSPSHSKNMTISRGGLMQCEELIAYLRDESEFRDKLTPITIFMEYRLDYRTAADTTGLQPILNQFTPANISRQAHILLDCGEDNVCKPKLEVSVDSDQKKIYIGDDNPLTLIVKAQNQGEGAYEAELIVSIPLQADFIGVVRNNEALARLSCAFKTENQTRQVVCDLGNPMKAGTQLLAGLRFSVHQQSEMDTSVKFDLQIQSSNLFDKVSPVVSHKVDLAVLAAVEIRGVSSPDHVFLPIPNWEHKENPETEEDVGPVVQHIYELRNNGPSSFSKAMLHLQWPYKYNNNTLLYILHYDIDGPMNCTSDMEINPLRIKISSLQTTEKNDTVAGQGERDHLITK
Sequence (P06756 891-1048 limits assumed): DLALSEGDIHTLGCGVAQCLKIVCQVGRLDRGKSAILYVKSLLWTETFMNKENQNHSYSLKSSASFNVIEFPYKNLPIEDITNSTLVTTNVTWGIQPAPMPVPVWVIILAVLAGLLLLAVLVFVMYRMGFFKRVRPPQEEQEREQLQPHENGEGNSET
Sequence (P05106 27-788): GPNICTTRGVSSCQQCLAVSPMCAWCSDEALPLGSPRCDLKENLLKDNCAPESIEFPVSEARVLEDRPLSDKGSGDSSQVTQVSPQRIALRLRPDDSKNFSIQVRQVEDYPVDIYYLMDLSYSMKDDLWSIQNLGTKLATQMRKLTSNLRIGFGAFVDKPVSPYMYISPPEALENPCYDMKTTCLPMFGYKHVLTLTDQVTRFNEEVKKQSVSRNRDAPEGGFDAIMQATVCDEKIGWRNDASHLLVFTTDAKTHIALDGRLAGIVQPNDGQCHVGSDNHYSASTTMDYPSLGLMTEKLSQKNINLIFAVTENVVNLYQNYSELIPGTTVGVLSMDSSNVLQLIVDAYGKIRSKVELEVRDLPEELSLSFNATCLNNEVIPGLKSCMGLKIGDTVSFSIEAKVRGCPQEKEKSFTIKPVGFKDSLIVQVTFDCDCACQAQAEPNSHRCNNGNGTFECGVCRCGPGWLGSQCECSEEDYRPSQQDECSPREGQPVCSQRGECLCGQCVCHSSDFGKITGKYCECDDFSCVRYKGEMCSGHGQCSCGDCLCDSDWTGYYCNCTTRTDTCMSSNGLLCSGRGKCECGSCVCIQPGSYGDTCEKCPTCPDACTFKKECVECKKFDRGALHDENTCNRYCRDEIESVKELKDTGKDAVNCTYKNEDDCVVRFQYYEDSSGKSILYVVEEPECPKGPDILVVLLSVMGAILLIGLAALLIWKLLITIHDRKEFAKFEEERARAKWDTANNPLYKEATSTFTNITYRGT
pIC50: −log10 of the molar value.
measurement_label: pIC50

compound: O=C(CCc1ccc2oc(CC(NS(=O)(=O)NC(=O)OCC34CC5CC(CC(C5)C3)C4)C(=O)O)cc2c1)NC1=NCCCN1 (stereo not drawn)
measurement_label: pIC50
assay_value: 7.19

compound: CS(=O)(=O)NC(Cc1cc2cc(CCC(=O)NC3=NCCCN3)ccc2o1)C(=O)O (stereo not drawn)
measurement_label: pIC50
assay_value: 8.17

compound: CCCS(=O)(=O)NC(Cc1cc2cc(CCC(=O)NC3=NCCCN3)ccc2o1)C(=O)O (stereo not drawn)
measurement_label: pIC50
assay_value: 8.24
